target: Cytochrome P450 2B6 (Homo sapiens, UniProt P20813); test: Inhibition of CYP2B6 in human liver microsomes assessed as bupropion 4-hydroxylation after 15 mins
Sequence (P20813 whole entry): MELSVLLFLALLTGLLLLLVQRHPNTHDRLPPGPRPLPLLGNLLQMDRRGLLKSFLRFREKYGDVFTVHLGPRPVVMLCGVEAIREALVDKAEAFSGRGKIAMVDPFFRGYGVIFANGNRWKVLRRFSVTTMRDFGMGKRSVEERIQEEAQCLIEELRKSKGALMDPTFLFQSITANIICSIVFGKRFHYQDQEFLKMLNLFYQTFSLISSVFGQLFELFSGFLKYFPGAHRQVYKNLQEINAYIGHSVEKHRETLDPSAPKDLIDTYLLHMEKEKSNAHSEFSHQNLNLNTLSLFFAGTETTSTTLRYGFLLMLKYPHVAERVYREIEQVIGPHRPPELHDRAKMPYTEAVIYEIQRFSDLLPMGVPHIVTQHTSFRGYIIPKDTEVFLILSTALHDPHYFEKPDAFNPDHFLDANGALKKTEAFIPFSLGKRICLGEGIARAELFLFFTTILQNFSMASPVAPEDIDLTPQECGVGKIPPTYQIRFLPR

>  <COMPOUND>
C[C@@H](c1ncncc1F)[C@](O)(Cn1cncn1)c1ccc(F)cc1F [VORICONAZOLE]

>  <IC50>
1190 nM

$$$$

###

target: CYP2D6 (Homo sapiens); experiment: Inhibition of CYP2D6 in human liver microsomes assessed as dextromethorphan O-demethylation at 100 uM after 30 mins; type: ADME, Microsome; details: probe dextromethorphan (O-demethylation)
Sequence (P10635 whole entry): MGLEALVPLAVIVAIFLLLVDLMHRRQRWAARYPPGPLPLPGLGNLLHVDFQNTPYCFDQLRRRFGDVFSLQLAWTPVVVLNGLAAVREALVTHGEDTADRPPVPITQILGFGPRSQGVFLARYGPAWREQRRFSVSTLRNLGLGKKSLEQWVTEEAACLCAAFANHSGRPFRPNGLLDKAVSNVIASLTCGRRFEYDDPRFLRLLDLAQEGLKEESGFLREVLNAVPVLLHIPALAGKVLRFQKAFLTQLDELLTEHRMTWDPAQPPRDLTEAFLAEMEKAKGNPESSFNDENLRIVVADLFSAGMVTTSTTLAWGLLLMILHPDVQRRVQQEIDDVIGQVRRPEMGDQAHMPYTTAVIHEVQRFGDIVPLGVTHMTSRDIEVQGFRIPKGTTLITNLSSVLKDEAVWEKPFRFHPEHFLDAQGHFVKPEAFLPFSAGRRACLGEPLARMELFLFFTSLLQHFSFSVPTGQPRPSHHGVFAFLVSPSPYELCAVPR

>  <RECORD_SMILES>
C[C@@H](c1ncncc1F)[C@](O)(Cn1cncn1)c1ccc(F)cc1F

>  <inhibition at 0.5 h, 100 µM>
< 25%

$$$$
